# assay text: water vapour sorption isotherm (25° C.), DVS intrinsic system; hygroscopicity according to Ph. Eur. 5.11
# Format: physicochemical
# condition summary: 25° C. water vapour sorption
metric name: hygroscopicity classification according to Ph. Eur. criteria (section 5.11.)

>>> df
                                   molecule            data_value
0  COc1ncc(C2=CCOCC2)c2sc(NC(=O)N3CC[C@@]4(CCCOC4)C3)nc12 [crystalline anhydrous form A1]  Slightly hygroscopic
1  COc1ncc(C2=CCOCC2)c2sc(NC(=O)N3CC[C@@]4(CCCOC4)C3)nc12 [mono fumaric acid co-crystal form A1]  Slightly hygroscopic
